This collection of values is drawn from patent US20220112291A1.

target: human CD1a expressed on cells (human, UniProt P06126 17-327); test: cell-based or functional assay
Sequence (P06126 17-327): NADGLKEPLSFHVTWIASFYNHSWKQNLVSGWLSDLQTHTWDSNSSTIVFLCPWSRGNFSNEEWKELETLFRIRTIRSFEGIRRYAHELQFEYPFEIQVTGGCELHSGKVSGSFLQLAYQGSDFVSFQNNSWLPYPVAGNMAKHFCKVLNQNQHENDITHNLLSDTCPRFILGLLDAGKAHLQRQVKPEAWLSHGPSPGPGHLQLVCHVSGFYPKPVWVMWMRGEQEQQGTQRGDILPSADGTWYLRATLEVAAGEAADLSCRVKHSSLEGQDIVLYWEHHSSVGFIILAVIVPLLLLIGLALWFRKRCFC
parameter: Inhibition of IL-2 production, IC50 (nM)
Report the value in nM with no unit label.

Here is how some binders turned out for Inhibition of IL-2 production, IC50.
{"binder": "Ab616 (antibody, human IgG1, kappa, V domains shown, Optimized variant of Ab138; human IgG1 effector null / kappa; HC with or without terminal lysine) VH: EVQLVESGGGLVQPGGSLRLSCAASGFTFEDHYMHWVRQAPGKGLEWVGHISGSAGGYTTESNPAVKGRFTISRDNAKNSLYLQMNSLRAEDTAVYYCARETTRIPTGWFAYWGQGTLVTVSS VL: DIQMTQSPSSLSASVGDRVTITCLASEDIYFDLAWYQQKPGKAPKLLIYGGDRLKEGVPSRFSGSGSGTDYTLTISSLQPEDFATYYCQQSYSYPYTFGQGTKLEIKR", "parameter": "Inhibition of IL-2 production, IC50", "unitAbbrev": "nM", "readoutValue": 0.11}
{"binder": "Ab660 (antibody, human IgG1, kappa, V domains shown, Optimized variant of Ab138; human IgG1 effector null / kappa; HC with or without terminal lysine) VH: EVQLVESGGGLVQPGGSLRLSCAASGFTFTDHYMHWVRQAPGKGLEWVGHIRNAAGGYTTESNPAVKGRFTISRDNAKNSLYLQMNSLRAEDTAVYYCARETTRIPTGWFAYWGQGTLVTVSS VL: DIQMTQSPSSLSASVGDRVTITCLASEDIYFDLAWYQQKPGKAPKLLIYGASTPKDGVPSRFSGSGSGTDYTLTISSLQPEDFATYYCQQSEKYPYTFGQGTKLEIKR", "parameter": "Inhibition of IL-2 production, IC50", "unitAbbrev": "nM", "readoutValue": 0.15}
{"binder": "Ab623 (antibody, human IgG1, kappa, V domains shown, Optimized variant of Ab138; human IgG1 effector null / kappa; HC with or without terminal lysine) VH: EVQLVESGGGLVQPGGSLRLSCAASGFTFEDHYMHWVRQAPGKGLEWVAHTRDKAGGYTTESNPAVKGRFTISRDNAKNSLYLQMNSLRAEDTAVYYCARETTRIPTGWFAYWGQGTLVTVSS VL: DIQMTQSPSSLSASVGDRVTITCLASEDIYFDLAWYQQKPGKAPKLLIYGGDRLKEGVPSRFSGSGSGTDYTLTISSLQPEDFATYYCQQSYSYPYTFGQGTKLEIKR", "parameter": "Inhibition of IL-2 production, IC50", "unitAbbrev": "nM", "readoutValue": 0.17}

The reported Inhibition of IL-2 production, IC50 of the binder Ab599 (antibody, human IgG1, kappa, V domains shown, Optimized variant of Ab138; human IgG1 effector null / kappa; HC with or without terminal lysine) VH: EVQLVESGGGLVQPGGSLRLSCAASGFTFTDHYMHWVRQAPGKGLEWVGHISGSAGGYTTESNPAVKGRFTISRDNAKNSLYLQMNSLRAEDTAVYYCARETTRIPTGWFAYWGQGTLVTVSS VL: DIQMTQSPSSLSASVGDRVTITCLASEDIYFDLAWYQQKPGKAPKLLIYGGDRLKEGVPSRFSGSGSGTDYTLTISSLQPEDFATYYCQQSESYPYTFGQGTKLEIKR was 0.08

The reported Inhibition of IL-2 production, IC50 of the binder Ab673 (antibody, human IgG1, kappa, V domains shown, Optimized variant of Ab138; human IgG1 effector null / kappa; HC with or without terminal lysine) VH: EVQLVESGGGLVQPGGSLRLSCAASGFTFTDHYMHWVRQAPGKGLEWVAHTRDKAGGYTTESNPAVKGRFTISRDNAKNSLYLQMNSLRAEDTAVYYCARETTRIPTGWFAYWGQGTLVTVSS VL: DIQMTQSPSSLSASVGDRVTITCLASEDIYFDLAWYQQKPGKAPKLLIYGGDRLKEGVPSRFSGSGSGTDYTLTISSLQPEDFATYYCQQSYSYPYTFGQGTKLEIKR was 0.18
